Test system: ATP;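 note: ATP exposure 15 min at 22 °C before imaging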
Test: switch fluorescence ratio, 500 uM ATP over buffer (Cy3 cluster intensity, sum of 5 cycles each) (fold (ratio)); higher = stronger signal-on switching upon ATP binding; sequences stand for … in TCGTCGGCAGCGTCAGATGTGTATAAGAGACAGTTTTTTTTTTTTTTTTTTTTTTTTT…TC
Conditions: aptamer strand: ATP DNA aptamer (quencher-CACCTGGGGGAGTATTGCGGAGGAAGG + anchor), 100 nM annealed; ATP concentration: 500 uM
switch fluorescence ratio values for the sequences below.
Give only the figure.

Here are 5 sequences together with their reported answers.
Quick one: switch fluorescence ratio of ACTCAGGTCC ?
1.08

Entry AGGGGAAAGT please
0.954

Follow-up entry: GGGCCCGAAT
0.992

Also, TGTGGTGTGC please.
1.01

Subsequent entry: GTGGGATGAC
1.01

Attention now turns to another entry.
Consider the sequence shown here: ATAACTTTTT What is its recorded switch fluorescence ratio?
0.992

----------
System: ATP;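 note: ATP exposure 15 min at 22 °C before imaging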
Assay: switch fluorescence ratio, 500 uM ATP over buffer (Cy3 cluster intensity, sum of 5 cycles each) (fold (ratio)); higher = stronger signal-on switching upon ATP binding; sequences stand for … in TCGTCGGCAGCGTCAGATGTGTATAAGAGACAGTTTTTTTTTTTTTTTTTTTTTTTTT…TC
Details: aptamer strand: ATP DNA aptamer (quencher-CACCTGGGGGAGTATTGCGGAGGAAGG + anchor), 100 nM annealed; ATP concentration: 500 uM
# label = yes (1) if switch fluorescence ratio >= 1 else no (0)

Example entries and their recorded answers appear below.
Reported switch fluorescence ratio reaches at least 1 for GGGTTAATAT ?
yes (1)

Same read-out for AACATTCCTT ?
yes (1)

One more sequence: AACCCAAGGG
yes (1)

Consider the additional sequence presented here.
Reported switch fluorescence ratio at or above 1? ATTTGGCATC
yes (1)

----------
Test system: ATP;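 note: ATP exposure 15 min at 22 °C before imaging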
Assay: switch fluorescence ratio, 500 uM ATP over buffer (Cy3 cluster intensity, sum of 5 cycles each) (fold (ratio)); higher = stronger signal-on switching upon ATP binding; sequences stand for … in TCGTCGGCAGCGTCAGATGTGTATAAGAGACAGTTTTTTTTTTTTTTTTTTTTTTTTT…TC
Conditions: aptamer strand: ATP DNA aptamer (quencher-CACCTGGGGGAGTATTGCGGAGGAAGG + anchor), 100 nM annealed; ATP concentration: 500 uM
Each record here notes measured switch fluorescence ratio.
Output: the number by itself.

# count of solved cases: 3
I have this sequence here, TTTTGGTAGT , and I need its recorded switch fluorescence ratio.
1.03

Repeat for the following sequence: GCCTGGGGGA
1.07

Next record, please: GCCCTTGTAC
1.2

Further cases:
Would you mind telling me what switch fluorescence ratio value was observed for CTGGGGTAAT ?
1.03

Same for TAAGAAGATG
0.981

Now consider TTCATGAGTG and answer again.
0.97

Record: TAGTTTGGAA
0.984

Repeat with ATATTGAAGG
0.981

----------
System: ATP;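 note: ATP exposure 15 min at 22 °C before imaging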
Test: switch fluorescence ratio, 500 uM ATP over buffer (Cy3 cluster intensity, sum of 5 cycles each) (fold (ratio)); higher = stronger signal-on switching upon ATP binding; sequences stand for … in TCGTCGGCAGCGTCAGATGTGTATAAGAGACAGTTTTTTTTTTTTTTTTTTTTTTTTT…TC
Settings: aptamer strand: ATP DNA aptamer (quencher-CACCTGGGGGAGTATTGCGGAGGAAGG + anchor), 100 nM annealed; ATP concentration: 500 uM
This section presents sequences with their documented switch fluorescence ratio values.
Reply briefly: the number, and no unit.

Which switch fluorescence ratio reading was recorded for the sequence CGTTACTATA ?
1.08

***
Name the recorded switch fluorescence ratio for GTTTTTAGTT .
1.01

What about TGGCCCTTTT ?
1.07
